assay: gradient 5% acetonitrile 3 min, to 50% in 2 min, to 85% in 15 min, held 3 min, 100 µL/min; conditions: column: Zorbax Extend-C18 2.1 x 50 mm; eluents: water / acetonitrile, 0.1% formic acid
Recorded RP-LC retention time determines the group label, using bucket A (below 700 s), bucket B (700 s to below 900 s), bucket C (900 s or more)

// query Tag the class for O=C(O)Cc1sc(Nc2ccc(F)c(F)c2F)nc1-c1ccccc1
// result bucket C

// query Consider next the compound Cc1cccc(N2CCN(c3ccc4cc(S(=O)(=O)N5CCC(C)CC5)ccc4n3)CC2)c1C in the same way.
// result bucket C

// query Consider next the compound CCn1c(=O)c2ccnn2c2ccc(C(=O)NC3CCCC3)cc21 in the same way.
// result bucket A

// query Consider next the compound CCn1cc(-c2nc(C(=O)Nc3ccc(F)c(F)c3)cs2)c2cccnc21 in the same way.
// result bucket C

// query Consider next the compound Cc1cnc(C(=O)N[C@@H]2CCC[C@@H]2C(=O)NCc2ccc3c(c2)OCO3)cn1 in the same way.
// result bucket A

// query Consider next the compound O=C1NCCOCCCN(C(=O)Nc2ccc3c(c2)OCCO3)[C@H]2CCCC[C@@H]12 in the same way.
// result bucket A

// query Consider next the compound CCCC(C)C(=O)NC1CCN(C2=NS(=O)(=O)C(c3ccc(F)cc3)=C2C)CC1 (centres undefined) in the same way.
// result bucket B

// query Consider next the compound COc1ccc(-c2noc(CCc3nnc4ccc(N5CCN(C6CCCCC6)CC5)nn34)n2)cc1 in the same way.
// result bucket A

// query Consider next the compound O=C(C1CCN(c2cnc(N3CCCCC3)nc2)CC1)N1CCOCC1 in the same way.
// result bucket A

// query Consider next the compound CCc1nn(CC)c(=O)c2cc(S(=O)(=O)NC(C)c3ccccc3)cn12 (centres undefined) in the same way.
// result bucket C

// query Consider next the compound O=C(Nc1nc(-c2nc3ccccc3s2)cs1)c1coc2ccccc2c1=O in the same way.
// result bucket C

// query Consider next the compound CCOc1cccc(C2c3[nH]c4ccccc4c3CCN2C(=O)Cc2cccs2)c1 (centres undefined) in the same way.
// result bucket C

// query Consider next the compound CCC(Oc1ccc(Cl)cc1)C(=O)OC1CC2CCC(C1)N2C (centres undefined) in the same way.
// result bucket B

// query Consider next the compound O=S(=O)(c1ccc(F)cc1F)N1CCC(CN2CCCCCC2)CC1 in the same way.
// result bucket A

// query Consider next the compound CCN1CCC(N(Cc2ccc3c(c2)OCO3)C(=O)Nc2cc(Cl)ccc2C(=O)OC)CC1 in the same way.
// result bucket B

// query Consider next the compound N#CCCN(C(=O)c1noc2c1CCCC2)c1ccccc1 in the same way.
// result bucket B

###

Hi there, I'd appreciate the recorded RP-LC retention time for every entry that follows.
experiment: gradient 5% acetonitrile 3 min, to 50% in 2 min, to 85% in 15 min, held 3 min, 100 µL/min; conditions: column: Zorbax Extend-C18 2.1 x 50 mm; eluents: water / acetonitrile, 0.1% formic acid
# output: number + unit

// query Look up RP-LC retention time: COCc1c(C(=O)O)nnn1-c1ccc(C(C)C)cc1
// result 825 s

// query Consider next the compound CCC(COC(=O)c1cc(OC)c(OC)c(OC)c1)(c1ccccc1)N(C)C (stereo not given) in the same way.
// result 752 s

// query Consider next the compound O=S(=O)(c1ccc(OC(F)(F)F)cc1)N1CCC(c2nnc(C(F)(F)F)o2)CC1 in the same way.
// result 1000 s

// query Consider next the compound COc1ccc(OC)c(NC(=O)c2cc(C)n(CCN(C)C)c2C)c1 in the same way.
// result 636 s

// query Consider next the compound CC1CCCN(CCCNC(=O)CN2C(=O)CCn3nc(-c4cn(C)c5ccccc45)cc32)C1 (stereo not given) in the same way.
// result 635 s

// query Consider next the compound CNC(=O)N1CCCC(c2cccc(C(=O)NCc3ccc(F)cc3F)c2)C1 (stereo not given) in the same way.
// result 775 s

// query Consider next the compound Cc1[nH]c(C(=O)N2CCCC(C(=O)NCc3ccccc3F)C2)c(C)c1C(=O)OC(C)C (stereo not given) in the same way.
// result 860 s

// query Consider next the compound Cc1ccc(NC(=O)C2CCCN(S(=O)(=O)c3cc(-c4noc(C)n4)cs3)C2)c(Cl)c1 (stereo not given) in the same way.
// result 1060 s

// query Consider next the compound Cn1cc2c3c(cccc31)CN(C(=O)c1ccc(Br)cc1)CC2 in the same way.
// result 1030 s

// query Consider next the compound Cn1ncc2c3ccccc3n(CCCC(=O)NCc3ccco3)c2c1=O in the same way.
// result 787 s

// query Consider next the compound Cc1cccc(NC(=O)c2cnn3c2CCCC3)c1 in the same way.
// result 776 s

// query Consider next the compound CCCn1cc(CCNC(=O)c2ccccc2Br)c2cccnc21 in the same way.
// result 748 s

// query Consider next the compound Cc1cccc(C)c1Nc1c(-c2ccc(N3CCOCC3)cc2)nc2ncccn12 in the same way.
// result 721 s

// query Consider next the compound CC(NC(=O)c1c(O)c2cccnc2n(-c2ccccc2)c1=O)c1ccccc1 (stereo not given) in the same way.
// result 1190 s

// query Consider next the compound CCN(CC)CCNS(=O)(=O)c1cc(-c2nc(C)c(C)s2)sc1C in the same way.
// result 656 s

// query Consider next the compound CC(C)CNC(=O)C1Cn2cccc2C(=O)N1CC(C)C (stereo not given) in the same way.
// result 750 s

// query Consider next the compound Cc1noc(C)c1C(=O)N1CCCC1c1ccc(Cl)cc1 (stereo not given) in the same way.
// result 855 s

// query Consider next the compound O=S(=O)(c1cccn2cnnc12)N(Cc1cccc(F)c1)c1ccc(F)cc1 in the same way.
// result 822 s

// query Consider next the compound O=C(CCc1ccccc1)NCC1CCN(Cc2ccccn2)CC1 in the same way.
// result 556 s

// query Consider next the compound CCOc1ccc(-n2c(CN3CCN(C(=O)NCC(C)C)CC3)nc3cccnc32)cc1 in the same way.
// result 654 s
